- testDetails: In vitro survival of control bone marrow cells exposed to compound (Table I)
- Type: cell-based
- experimentalParameters: human, 10 μg/ml
valueType: viability (%)
Numeric answer only, unit % assumed.

O=c1ccn([C@H]2OC[C@H](O)[C@H](O)[C@@H]2O)c(=O)[nH]1 [(3), β-L-ribopyranosyluracil]	96
Nc1ccn([C@H]2OC[C@H](O)[C@H](O)[C@@H]2O)c(=O)n1 [(8), β-L-ribopyranosylcytosine]	93.1
O=c1[nH]c(=O)n([C@@H]2OC[C@H](O)[C@H](O)[C@@H]2O)cc1F [(18), α-L-ribopyranosyl-5-fluorouracil]	166
Nc1nc2c(ncn2[C@H]2OC[C@H](O)[C@H](O)[C@@H]2O)c(=O)[nH]1 [(14), β-L-ribopyranosylguanine]	106

Please turn your attention to the following entry.
Lab note: measured viability of O=c1[nH]c(=O)n([C@H]2OC[C@H](O)[C@H](O)[C@@H]2O)cc1F [(5), β-L-ribopyranosyl-5-fluorouracil] was 116
